target: ALK2 R206H (GST-tagged mutant ALK2) (Homo sapiens, UniProt Q04771, R206H); construct: purchased Carna Bioscience or ThermoFisher 09-148 or PV6232; test: ALK binding assay (LANTHASCREEN TR-FRET competitive binding, displacement of Kinase Tracer 178); conditions: ALK2 R206H, LANTHASCREEN TR-FRET competitive binding; read-out: Binding Assay (IC50)
Sequence (Q04771 21-509 R206H): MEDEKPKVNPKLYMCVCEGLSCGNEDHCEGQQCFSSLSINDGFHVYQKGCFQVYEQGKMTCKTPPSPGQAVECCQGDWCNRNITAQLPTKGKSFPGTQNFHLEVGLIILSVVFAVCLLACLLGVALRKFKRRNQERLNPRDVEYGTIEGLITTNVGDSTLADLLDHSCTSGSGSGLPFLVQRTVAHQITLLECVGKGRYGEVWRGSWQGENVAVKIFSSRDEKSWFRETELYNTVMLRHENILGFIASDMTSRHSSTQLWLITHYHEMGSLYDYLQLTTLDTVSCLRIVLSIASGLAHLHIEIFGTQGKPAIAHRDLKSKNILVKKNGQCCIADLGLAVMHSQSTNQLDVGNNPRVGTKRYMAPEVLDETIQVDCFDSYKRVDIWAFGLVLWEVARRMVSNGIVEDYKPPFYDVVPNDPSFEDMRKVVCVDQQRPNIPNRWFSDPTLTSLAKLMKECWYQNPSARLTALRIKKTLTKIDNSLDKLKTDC
pIC50: −log10 of the molar value.
RECORDED_ENDPOINT: pIC50

Consider the worked cases shown below.
COC1(c2ccc(-c3cc4c(N5CCN(C(=O)C6CC(C#N)C6)CC5)ccnn4c3)cc2)CN(C(C)C)C1 (stereo not shown) [Compound 655] | > 8.00
CC(C)N1CCC(c2ccc(-c3cc4c(N5CCN(C(=O)NCC(F)F)CC5)ccnn4c3)cc2)CC1 [Compound 822] | 7.30 to 8.00
CC(C)N1CCN[C@@](C)(c2ccc(-c3cc4c(N5CCN(C(=O)C6CC6)CC5)ccnn4c3)nc2)C1 [Compound 576] | > 8.00
CC(C)N1CC[C@@H](c2ccc(-c3cc4c(N5CCN(C(=O)C6CC6)CC5)ccnn4c3)cc2)C1 [Compound 203] | > 8.00
COC1(c2ccc(-c3cc4c(N5CCN(C(=O)NC(C)C)CC5)ccnn4c3)cc2)CN(C(C)C)C1 [Compound 593] | > 8.00

For this molecule ( CC(C)NC(=O)N1CCN(c2ccnn3cc(-c4ccc([C@@H]5CN(C(C)C)CC[C@H]5OC(F)F)cc4)cc23)CC1 [Compound 869] ), measured pIC50 is > 8.00

For this molecule ( CC(C)N1CCC(c2ccc(-c3cc4c(N5CCN(C(=O)OC6CCC6)CC5)ccnn4c3)cc2)CC1 [Compound 621] ), measured pIC50 is > 8.00

----------
The reader will find reported IC50 values listed item by item below.
target: human ALK2 R206H (Homo sapiens, UniProt Q04771, R206H); construct: expressed in transfected cells; host or cells: HEK293 (ATCC CRL1573), lentivirus transduction, blasticidin selection; assay: Cell-based ALK2-R206H cell activity assay (Smad1-Ser463/Ser465 phosphorylation by AlphaLISA in HEK293-ALK2-R206H cells); settings: read-out: Cell Line (Cell Assay IC50)

Consider the worked cases shown below.
C[C@H]1CNC[C@H](c2ccc(-c3cc4c(N5CCN(C(=O)C6CC6)CC5)ccnn4c3)cc2)O1 | 100 to 500 nM
O=C(C1CC1)N1CCN(c2ccnn3cc(-c4ccc(N5CCN(CCO)CC5)cc4)cc23)CC1 | 100 to 500 nM
O=C(C1CC1)N1CCN(c2ccnn3cc(-c4ccc(C5(F)CCCNC5)cc4)cc23)CC1 (stereo not drawn) | < 100 nM
COC1(c2ccc(-c3cc4c(N5CCN(C(=O)OC6COC6)CC5)ccnn4c3)nc2)CCNC(C)(C)C1 (stereo not drawn) | < 100 nM
O=C(C1CC1)N1CCN(c2ccnn3cc(-c4ccc(C5(O)CN6CCC5CC6)cc4)cc23)CC1 (stereo not drawn) | 100 to 500 nM

For this molecule ( CCOC1(c2ccc(-c3cc4c(N5CCN(C(=O)O[C@@H]6CCOC6)CC5)ccnn4c3)nc2)CCN(C(C)C)CC1 ), measured IC50 is < 100 nM

For this molecule ( COC1(c2ccc(-c3cc4c(N5CCN(C(=O)NC(C)C)CC5)ccnn4c3)cc2)CCN(C2COC2)CC1 ), measured IC50 is < 100 nM

For this molecule ( CC(C)N1CC[C@H](OC(F)F)[C@@H](c2ccc(-c3cc4c(N5CCN(C(=O)OC6COC6)CC5)ccnn4c3)cc2)C1 ), measured IC50 is < 100 nM

For this molecule ( CC(C)N1CCN(C)[C@](C)(c2ccc(-c3cc4c(N5CCN(C(=O)C6CC6)CC5)ccnn4c3)cc2)C1 ), measured IC50 is < 100 nM

For this molecule ( CC(C)N1CCC(c2ccc(-c3cc4c(N5CCN(C(=O)OC6CCC6)CC5)ccnn4c3)cc2)CC1 ), measured IC50 is 100 to 500 nM

For this molecule ( COCCN1CCN(c2ccc(-c3cc4c(N5CCN(C(=O)C6CC6)CC5)ccnn4c3)cc2)CC1 ), measured IC50 is 100 to 500 nM

For this molecule ( CCOC1(c2ccc(-c3cc4c(N5CCN(C(=O)OCCC#N)CC5)ccnn4c3)nc2)CCN(C(C)C)CC1 ), measured IC50 is < 100 nM

For this molecule ( CC(C)N1CCC(c2ccc(-c3cc4c(N5CCN(C(=O)NCCO)CC5)ccnn4c3)cc2)CC1 ), measured IC50 is 100 to 500 nM

For this molecule ( CC(C)N1CCC(c2ccc(-c3cc4c(N5CCN(C(=O)O[C@@H]6CCOC6)CC5)ccnn4c3)cc2)CC1 ), measured IC50 is < 100 nM

For this molecule ( COC1(c2ccc(-c3cc4c(N5CCN(C(=O)C6CC6)CC5)ccnn4c3)cc2F)CCN(C(C)C)CC1 ), measured IC50 is < 100 nM
